Test system: SK-OV-3 ovarian
Test: NCI-60 one-dose screen, 48 h
Conditions: 10 µM unless noted
About 83,000 compounds went through this panel and 20% of them were active in at least one assay; those are over-represented in the sample as a whole. The source made the active and inactive calls. The calls were made as follows: active = growth percent below 10; inactive = the rest.
Your response should consist of one outcome taken from active, inactive

>>> cat("Brc1ccc(N/N=C/c2c[nH]c3ccc(Br)cc23)nc1")
"active"

Query :: Record request — test call for Cn1cc(NC(=O)c2cc(NC(=O)c3ccc(/C=C/c4ccccc4)cc3)cn2C)cc1C(=O)NCCCN1CCOCC1
Result :: inactive

Query :: Param item: CCOc1ccc(C(=O)NC(=S)Nc2ccc(S(N)(=O)=O)cc2)cc1
Result :: inactive

Query :: Param item: CC(C)Sc1nc(NCCc2c[nH]c3ccccc23)c(C#N)c(-c2ccccc2)n1
Result :: inactive

Query :: Param item: Cc1ccc(C2=NN(c3nc(-c4cc5ccccc5oc4=O)cs3)C(c3ccc(C)cc3)C2)cc1 (stereo not drawn)
Result :: inactive

Query :: Param item: Cc1ccccc1[C@H]1C(C(=O)c2ccc(Cl)cc2)C2(N[C@@H]1c1ccccc1)C(=O)Nc1ccc(Br)cc12 (stereo partly drawn)
Result :: inactive

Query :: Param item: COc1ccc(NC(=O)Cn2c3c(sc2=O)[C@H]2[C@@H](O)[C@@H](O)[C@H](O)[C@@H]2CS3)cc1
Result :: inactive

Query :: Param item: C=C1CC[C@@H]2[C@]3(C)COC(c4cn[nH]c4-c4ccc(C)cc4)O[C@@H]3CC[C@@]2(C)[C@@H]1C/C=C1/C(=O)OCC1O (stereo partly drawn)
Result :: inactive
